substrate: pNPB; assay: Proxy for plastic degradation [p-nitrophenol (pNP) release]; settings: pH 7.4
Quantity Measured: Proxy for plastic degradation (U/mL)
The figure you give is taken to be in U/mL; do not add the unit.

Protein	Proxy for plastic degradation [U/mL]
unnamed (protein) MPPFRSSRWLSGGHVQTLYSPLWRASPQLQRRRERMTLQDGDFIDLDWYGPEGEATNCVLLLHGLTGSSASLYILGQQQALAARGWQSAAVNWRGCSGEPNHRARGYHSGVSEDLADVVKQLTLRYPHKLFAAIGYSLGGNVLLKYLGEKGSNTPLKAAVAVSVPFRLDHCAERINKGFSRVYQARFLRGLRRYVEHKRQAFLRQGRRGELARLAALETLKGMKTFWDFDGRVTAPLHGFESADDYYRRCSSAFFVEQIRIPTLIVHSLDDPFIYPQSVPKAEVLPSCVTLELHASGGHVGFIEGPPWRPRYYLEHRLPNWLQSQLCSQGKTHNTSALLSN	3

Please examine the following record next.
Data request: Reported Proxy for plastic degradation, protein unnamed (protein) MFRFHIVSALLTLFIAVPSQAHDVGQREIKISGAEPGRNLEVSVWYPAAIDGKATLIGDNIIFKGAPAVIDATPEKGSFPLLVMSHGSGGRAQGMAWLATELVKAGIIVAAPNHPGTTSGDSTPQDTPKIWQRTGDLSAVIDTMTTDPAWSGIIDKNKISVLGFSMGGAAAMEIAGARANLEAYARYCDTYGKWDCAWYAGGIGYRDDKQIKVDKVDLRSVDKSRFEQSNLDRRIASAIMIDPGLAQAYDAQSLASISIPMSFINLGEVETIPTGVVADKLASITPQGTYVTVAGATHFSFLPECKKGAADRLKSAGEVDPICSDDARRPRADIHADITKLVLKALQSMPKT : ____
Data returned: 225
